- tested.system: Cytochrome P450 1A2 (Homo sapiens, UniProt P05177);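 note: PubChem cytochrome P450 panel assay, CYP1A2 panel member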
- Sequence (P05177 whole entry): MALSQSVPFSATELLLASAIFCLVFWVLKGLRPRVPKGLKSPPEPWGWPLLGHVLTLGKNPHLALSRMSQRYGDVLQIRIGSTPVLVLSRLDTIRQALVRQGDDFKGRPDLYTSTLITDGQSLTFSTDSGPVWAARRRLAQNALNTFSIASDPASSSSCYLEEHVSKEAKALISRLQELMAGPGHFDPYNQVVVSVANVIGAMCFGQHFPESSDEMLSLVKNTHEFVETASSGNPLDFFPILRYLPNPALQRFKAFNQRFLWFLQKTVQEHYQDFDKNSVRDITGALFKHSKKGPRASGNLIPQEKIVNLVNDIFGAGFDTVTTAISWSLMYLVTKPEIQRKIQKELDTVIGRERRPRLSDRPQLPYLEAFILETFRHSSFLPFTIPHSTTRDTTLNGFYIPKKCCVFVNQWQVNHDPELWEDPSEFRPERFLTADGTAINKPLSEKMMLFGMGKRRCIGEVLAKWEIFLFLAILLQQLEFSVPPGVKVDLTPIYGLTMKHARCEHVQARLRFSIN
assay.metric: AC50

Solved entries (count: 5):
>  <molecule>
CCCc1cc2c(n1Cc1ccc(OC)cc1)C(C)C1CN(C(=O)c3ccccc3)C(C)(C(=O)OC)C21 (stereo unspecified)

>  <reported.measurement>
15.8 µM (inconclusive)

$$$$
>  <molecule>
CN1CCN(c2ncc3nc(-c4cn(C)c5ccccc45)c(=O)n(C[C@H]4CCCO4)c3n2)CC1

>  <reported.measurement>
6.31 µM (inconclusive)

$$$$
>  <molecule>
O[C@H](CN1CCN(c2cccc(Cl)c2)CC1)C(c1ccccc1)c1ccccc1

>  <reported.measurement>
31.6 µM (inconclusive)

$$$$
>  <molecule>
COC(=O)[C@@H]1[C@@H]2C[C@H]3c4[nH]c5cc(OC)ccc5c4CCN3C[C@@H]2C[C@H](OC(=O)/C=C\c2cc(OC)c(OC)c(OC)c2)[C@H]1OC

>  <reported.measurement>
3.16 µM (inconclusive)

$$$$
>  <molecule>
O=C(CCNNC(=O)c1ccncc1)NCc1ccccc1 [NIALAMIDE]

>  <reported.measurement>
12.6 µM (inconclusive)

$$$$

Moving on to the next molecule.
[ask] Look up AC50 for this molecule: C[C@@H](CN)CC(=O)O
[reply] 39.8 µM (inconclusive)

====

Below is a list of entries, each paired with its recorded EC50 value.
- tested.system: RNA-binding protein pos-1 (Caenorhabditis elegans, UniProt G5EF15)
- Sequence (G5EF15 whole entry, the tested form may be a part): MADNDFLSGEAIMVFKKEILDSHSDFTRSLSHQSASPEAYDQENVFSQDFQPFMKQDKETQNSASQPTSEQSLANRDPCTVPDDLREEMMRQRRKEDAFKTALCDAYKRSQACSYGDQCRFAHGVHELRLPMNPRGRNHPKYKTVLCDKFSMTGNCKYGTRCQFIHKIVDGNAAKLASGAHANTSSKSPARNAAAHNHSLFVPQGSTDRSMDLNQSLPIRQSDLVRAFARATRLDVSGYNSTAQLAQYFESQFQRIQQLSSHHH
- protocol.details: disruptors of C. elegans POS-1 RNA interaction – biochemical, fluorescence polarization, dose response (AID 1964);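 note: purified POS-1 fused to maltose binding protein made in E. coli; potency of compounds blocking POS-1 binding to fluorescent RNA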
The source made the active and inactive calls.

>  <compound>
Cc1c(CN2CCCCC2)c(O)n(CCCO)c(=O)c1C#N

>  <tested.system>
RNA-binding protein pos-1 (Caenorhabditis elegans, UniProt G5EF15)

>  <assay.metric>
EC50

>  <reported.measurement>
> 300 µM (not active)

$$$$

[ask] Data request, read-out EC50, for CCOC(=O)/C=c1\s/c(=C\c2ccc(C#N)cc2)c(=O)n1CC(=O)NCc1ccco1
[reply] > 300 µM (not active)

[ask] Now this one: O=C(O)C1Nc2c(O)cc(Cl)c([N+](=O)[O-])c2C2C=CCC12 (stereo unspecified)
[reply] 216 µM (inconclusive)

[ask] Would you mind doing O=C(N/N=C/c1ccc(O)c(O)c1)N/N=C/c1ccc(O)c(O)c1 as well?
[reply] 16.2 µM (active)

[ask] Please do the same for C=CCOn1c(=O)c(-c2cc3ccccc3o2)[n+]([O-])c2ccccc21 as well.
[reply] 28.3 µM (inconclusive)

[ask] Note, next up: O=C1NC(=S)N(c2ccccc2)C(=O)/C1=C/c1ccco1
[reply] 32.7 µM (active)

[ask] # iterate: CC1CCN(c2nc3ccccc3nc2C(C#N)C(=O)NC2CCCCC2)CC1 (stereo unspecified)
[reply] > 300 µM (not active)

[ask] Same again, this time with Cc1cccc(NC(=O)c2sc3nc(-c4ccccc4)cn3c2C)n1
[reply] > 300 µM (not active)

[ask] And for CCOc1ccc(N2C(=O)/C(=C/c3ccco3)C(=O)NC2=S)cc1 ?
[reply] 55.3 µM (active)

[ask] Try the compound CCCCOC(=O)Cn1c2ccc(OC)cc2c2nc3ccccc3nc21
[reply] > 300 µM (not active)

[ask] Check CN(C)c1ccc(-c2nnc(-c3ccc(S(=O)(=O)C(F)F)cc3)o2)cc1 too.
[reply] 55.7 µM (inconclusive)
